# Tested on: Mus musculus
# measurement.notes: Sedative activity in Mus musculus Swiss albino (mouse) at 10 mg/kg, ip after 1 hr relative to control
# Assay type: organism-based
# Design: dose 10 mg/kg, route intraperitoneal
# experimental.context: in vivo
Criterion: Activity meeting or surpassing 30%. Met: Fulfilled. Not met: Not fulfilled.

Challenge: Check if Activity >= 30% (inclusive). Item: `NC(=O)c1c(N2CCCCC2)nc2sc3ccccc3n2c1=O`
Response given: Not fulfilled

Challenge: Check if Activity >= 30% (inclusive). Item: CN(C)CCC(c1ccc(Cl)cc1)c1ccccn1.O=C(O)/C=C\C(=O)O (configuration not stated) [CHLORPHENIRAMINE MALEATE]
Response given: Fulfilled

Challenge: Check if Activity >= 30% (inclusive). Item: `NC(=O)c1c(N2CCOCC2)nc2sc3cc(Cl)ccc3n2c1=O`
Response given: Not fulfilled

Challenge: Check if Activity >= 30% (inclusive). Item: `CCN1CCN(c2nc3sc4cc(Cl)ccc4n3c(=O)c2C(N)=O)CC1`
Response given: Not fulfilled

Challenge: Check if Activity >= 30% (inclusive). Item: `NC(=O)c1c(N2CCN(CCO)CC2)nc2sc3ccccc3n2c1=O`
Response given: Fulfilled

Challenge: Check if Activity >= 30% (inclusive). Item: `CN1CCN(c2nc3sc4ccccc4n3c(=O)c2C(N)=O)CC1`
Response given: Fulfilled

Every entry's value here was drawn from ChEMBL document CHEMBL3044837.
